FYI, the data here is from PubChem BioAssay (NCI).

# Tested on: SW-620 colon
# MEASUREMENT_NOTES: NCI tumour cell line growth inhibition, 48 h; in the data active means GI50 below about 0.43 µM; inactive means the rest
In this exercise, the only acceptable responses are active, inactive

# count of solved cases: 4
COMPOUND | ANSWER_LABEL
O=C1C(=O)c2cc([N+](=O)[O-])ccc2-c2ccccc21 | inactive
O=S(=O)(/C=C/C=C/S(=O)(=O)c1ccccc1)c1ccccc1 | active
CCC1CCc2nc3sc(C(=O)Nc4ccccc4F)c(N)c3cc2C1 (stereo not drawn) | inactive
CCC[CH2][Sn]1([CH2]CCC)[O]C(c2ccccn2)S(=O)(=O)[O]1 (stereo not drawn) | inactive

GET /call?item= "Nc1ccccc1NC(=O)c1ccc(CSc2nc(N3CCOCC3)c3cccn3n2)cc1" returns the recorded outcome of this test.
inactive

---

For each record, write down the corresponding TGI.
# Tested on: RXF 393 renal
# MEASUREMENT_NOTES: NCI tumour cell line growth inhibition, 48 h
One number for each entry, in µM.

Worked examples follow.
COMPOUND | EXPERIMENTAL_READOUT | RECORDED_MEASUREMENT
Nc1ccccc1NC(=O)c1ccc(CSc2nc(N3CCOCC3)c3cccn3n2)cc1 | TGI | 2.51
O=c1oc2ccc(Cl)cc2c(=O)n1-c1ccc(Cl)cc1F | TGI | 1.85
CC1=CC(C)C(C)N(CCNC(=O)Nc2ccccc2)c2ccccc21 (stereo unspecified) | TGI | 40.3

Look up TGI for the entries below, preserving their order.
1. O=c1ncc(-c2ccc(C(F)(F)F)cc2)c(NC2CCCCCC2)[nH]1
2. O=c1c(O)c(-c2ccc(O)c(O)c2)oc2cc(O)ccc12

31.8
47

---

# System: 786-0 renal
# MEASUREMENT_NOTES: NCI tumour cell line growth inhibition, 48 h
For each record, write down the corresponding GI50.

Worked examples follow.
MOLECULE | RECORDED_MEASUREMENT
O=c1ncc(-c2ccc(C(F)(F)F)cc2)c(NC2CCCCCC2)[nH]1 | 23.6 µM
CCC[CH2][Sn]1([CH2]CCC)[O]C(c2ccccn2)S(=O)(=O)[O]1 (stereo not drawn) | 2.12 µM

Proceeding to the next molecule to report its GI50.
Need GI50 of "CN1CCN(C(=O)c2ccc(NC(=O)Nc3ccc(N(C)c4ccnc(Nc5ccc(CS(C)(=O)=O)cc5)n4)cc3)cc2)CC1" , thanks.
> 25 µM

---

For each record, write down the corresponding TGI.
# Tested on: OVCAR-8 ovarian
# MEASUREMENT_NOTES: NCI tumour cell line growth inhibition, 48 h

COMPOUND | EXPERIMENTAL_READOUT | RECORDED_MEASUREMENT
CC[C@H](C)c1occ2c(O)c(C(=O)O)c(=O)cc-2c1C | TGI | 41.4 µM
COc1cc(CC2CCc3nc(N)nc(N)c3C2)cc(OC)c1OC (configuration not stated) | TGI | > 100 µM
COc1ccc(-c2coc3ncnc(N)c23)cc1 | TGI | > 25 µM
COc1ccc2cc(C(=O)c3ccccc3C(=O)O)ccc2c1 | TGI | > 100 µM
O=C1CC2[C@@H](N3CCCC3)CCC(N1Cc1ccccc1)C2(O)O (some centres not stated) | TGI | > 100 µM
CCOC(=O)c1ccc2c(c1)nc1n2C(c2c(F)cccc2F)SC1 (configuration not stated) | TGI | 58.7 µM
C1COC2SC3=C(SC(=C4SC5=C(SCCS5)S4)S3)SC2O1 (configuration not stated) | TGI | > 100 µM
O=C(O)/C(Cl)=C(\Cl)Nc1cccc(C(F)(F)F)c1 | TGI | > 100 µM

Look up TGI for the entries below, preserving their order.
1. COC(=O)C1=CC(O)CCC1c1ccc(OC)cc1 (configuration not stated)
2. CC(C)[Si](OC12CCC(CC1O)CC2C(=O)O)(C(C)C)C(C)C (configuration not stated)

1: > 100 µM; 2: 42.4 µM

Look up TGI for the entries below, preserving their order.
1. O=C1C=C(Nc2ccccc2)c2ncccc2C1=O
2. CN(C(=O)OC(C)(C)C)[C@H]1CCCC[C@H]1N1CCCC1

1.4 µM
> 100 µM

---

# Tested on: COLO 205 colon
# MEASUREMENT_NOTES: NCI tumour cell line growth inhibition, 48 h
EXPERIMENTAL_READOUT: TGI

Worked examples follow.
MOLECULE | TGI
CCc1cc(-c2nsc(=O)o2)c(S(=O)(=O)CC)s1 | > 100 µM
CNC(=O)Nc1cc2c3c(c1)CCCN3CCC2 | > 10 µM
CCN(Cc1ccc(F)cc1)c1ccc(CO)c(Cl)c1 | 3.77 µM

Look up TGI for the entries below, preserving their order.
1. O=C(O)/C(Cl)=C(\Cl)Nc1cccc(C(F)(F)F)c1
2. NCC(=O)C(O)C(O)C(O)CO (stereo not given)
3. COc1ccc(-c2coc3ncnc(N)c23)cc1
4. CCOC(=O)C(NNS(=O)(=O)c1ccc(C)cc1)S(=O)(=O)C(F)(F)C(F)(F)C(F)(F)C(F)(F)F (stereo not given)
5. CC(=O)OCC1OC(n2c(C)c(N=Nc3ccc(C)cc3)c(C)c(C#N)c2=S)C(OC(C)=O)C(OC(C)=O)C1OC(C)=O (stereo not given)

1. > 100 µM
2. > 100 µM
3. > 25 µM
4. > 100 µM
5. > 100 µM

Look up TGI for the entries below, preserving their order.
1. C1COC2SC3=C(SC(=C4SC5=C(SCCS5)S4)S3)SC2O1 (stereo not given)
2. CCCSc1cc(Cl)c(C)cc1S(=O)(=O)n1cc[nH]c1=O

> 100 µM
> 100 µM

---

# System: MDA-MB-435
# MEASUREMENT_NOTES: NCI tumour cell line growth inhibition, 48 h
For each record, write down the corresponding TGI.
Numbers only, in µM.

Worked examples follow.
COMPOUND | RECORDED_MEASUREMENT
COc1ccc(-c2cc(-c3ccc(Nc4nc(Nc5ccc(Cl)cc5)nc(Nc5ccc(Cl)cc5)n4)cc3)no2)cc1 | 37
CC(=O)C1(c2ccccc2)CCN(Cn2sc3nc(C)cc(C)c3c2=O)CC1 | 59.8
Nc1ccccc1NC(=O)c1ccc(CSc2nc(N3CCOCC3)c3cccn3n2)cc1 | 1

Look up TGI for the entries below, preserving their order.
1. COC1Cc2c(C)c(OC(C)=O)c3cccnc3c2O1 (stereo unspecified)
2. CC1=CC(C)C(C)N(CCNC(=O)Nc2ccccc2)c2ccccc21 (stereo unspecified)
3. COC(=O)[C@@H]1O[C@]12C(CO[Si](C)(C)C(C)(C)C)OC(n1ccc(=O)[nH]c1=O)C2O[Si](C)(C)C(C)(C)C (stereo partly specified)
4. CC1CC(N)=Nc2ccccc2N1Cc1ccccc1 (stereo unspecified)
5. CCCCCCNC(=O)c1cc(NCc2cc(OC)ccc2OC)ccc1O

1. 32.6
2. 75.1
3. 58.7
4. 26.8
5. 44.8

---

# System: 786-0 renal
# MEASUREMENT_NOTES: NCI tumour cell line growth inhibition, 48 h
For each record, write down the corresponding TGI.

Worked examples follow.
COMPOUND | SYSTEM_NAME | RECORDED_MEASUREMENT
CC1(C)CC23C(=O)N(c4ccccc4)C(=Nc4ccccc4)NC2=CC(C#N)=C(C#N)C3O1 (stereo unspecified) | 786-0 renal | > 100 µM
CC(=O)C1(c2ccccc2)CCN(Cn2sc3nc(C)cc(C)c3c2=O)CC1 | 786-0 renal | 30.6 µM

Look up TGI for the entries below, preserving their order.
1. C=C(C)C(=O)NC(N)=NC#N
2. CCCCCCCCCCCCCCCCOP(=O)(O)OP(=O)(O)OCC1OC(n2ccc(N)nc2=O)CC1O (stereo unspecified)
3. CC(C#N)c1cn(S(=O)(=O)c2ccccc2)c2ccccc12 (stereo unspecified)
4. O=c1c(O)c(-c2ccc(O)c(O)c2)oc2cc(O)ccc12

["140 µM", "> 100 µM", "> 100 µM", "> 91.5 µM"]

---

For each record, write down the corresponding TGI.
# Tested on: HOP-92 NSCLC
# MEASUREMENT_NOTES: NCI tumour cell line growth inhibition, 48 h

Worked examples follow.
COMPOUND | EXPERIMENTAL_READOUT | RECORDED_MEASUREMENT
O=C1CC2[C@@H](N3CCCC3)CCC(N1Cc1ccccc1)C2(O)O (stereo partly specified) | TGI | > 100 µM
CCCC(OCC)(OCC)OCC | TGI | > 100 µM
Cc1cc(S(=O)(=O)Nc2nc(N)n(-c3cnc4ccccc4n3)n2)c(S)cc1Cl | TGI | 89.2 µM
CCOC(=O)CSc1nc(-c2ccc(OC)cc2)c(C#N)c(=O)[nH]1 | TGI | > 100 µM
CC(=O)OCc1nc(C#N)c(N)o1 | TGI | > 100 µM

Look up TGI for the entries below, preserving their order.
1. CCCCCCCCCCCCCOC(=O)c1c(C)[nH]c(/C=C2\N=C(c3ccc[nH]3)C=C2OC)c1C
2. O=C(OC(C(=O)O)C(OC(=O)c1ccccc1)C(=O)O)c1ccccc1 (stereo unspecified) (tested in a mixture with another compound)
3. COc1ccc(C(=O)/C=C/c2cc3ccccc3[nH]c2=O)cc1
4. COc1ccc(C)c2c1N[C@](C)([C@]1(C)Nc3c(OC)ccc(C)c3C1=O)C2=O
5. CCOC(=O)CSc1nc2ccccc2c(=O)n1N
6. COC(=O)c1cccc(NC(=O)Nc2ccc3oc(=O)c4ccccc4c3c2)c1

1: 0.497 µM; 2: 55.9 µM; 3: 37.3 µM; 4: > 100 µM; 5: > 100 µM; 6: > 100 µM

Look up TGI for the entries below, preserving their order.
1. COc1cccc2c1C(=O)C(=O)c1c-2oc(=O)c2cc(C)cc(OC)c12
2. CC(=O)CC(=O)N(CCN(C(=O)CC(C)=O)c1ccccc1)c1ccccc1
3. COc1cc(N2CCC(N3CCN(C)CC3)CC2)ccc1Nc1ncc(Cl)c(Nc2ccccc2P(C)(C)=O)n1
4. c1ccc(COCC23CCN(Cc4ccccc4)C(CC(OCc4ccccc4)C2)S3)cc1 (stereo unspecified)
5. COc1ccccc1C1C2=C(COC2=O)OC(C)(C)Oc2cc3c(cc21)OCO3 (stereo unspecified)

1. > 75 µM
2. > 100 µM
3. 2.41 µM
4. 87.4 µM
5. > 61.5 µM

Look up TGI for the entries below, preserving their order.
1. CC(C)[Si](OC12CCC(CC1O)CC2C(=O)O)(C(C)C)C(C)C (stereo unspecified)
2. CCOC(=O)/C(C#N)=C(/NS(=O)(=O)c1cc(C)c(Cl)cc1[S-])[n+]1ccc(N(C)C)cc1
3. CCCCCCCCCCCCCCCCOP(=O)(O)OP(=O)(O)OCC1OC(n2ccc(N)nc2=O)CC1O (stereo unspecified)
4. CNC(=O)Nc1cc2c3c(c1)CCCN3CCC2

1. 27.4 µM
2. 91.7 µM
3. > 100 µM
4. > 10 µM

Need TGI of "COc1ccccc1/C=C/C(=O)c1sc(-c2cccnc2)nc1C" , thanks.
> 100 µM
